# Target Or System: NPM-ALK (Homo sapiens)
# Construct: nucleophosmin (NPM, NPM1; human P06748) fusion partner; the other entry of the earlier key: Npm1 (Q61937, Nucleophosmin)
# Sequence (Q9UM73 with tags, fused parts or gaps): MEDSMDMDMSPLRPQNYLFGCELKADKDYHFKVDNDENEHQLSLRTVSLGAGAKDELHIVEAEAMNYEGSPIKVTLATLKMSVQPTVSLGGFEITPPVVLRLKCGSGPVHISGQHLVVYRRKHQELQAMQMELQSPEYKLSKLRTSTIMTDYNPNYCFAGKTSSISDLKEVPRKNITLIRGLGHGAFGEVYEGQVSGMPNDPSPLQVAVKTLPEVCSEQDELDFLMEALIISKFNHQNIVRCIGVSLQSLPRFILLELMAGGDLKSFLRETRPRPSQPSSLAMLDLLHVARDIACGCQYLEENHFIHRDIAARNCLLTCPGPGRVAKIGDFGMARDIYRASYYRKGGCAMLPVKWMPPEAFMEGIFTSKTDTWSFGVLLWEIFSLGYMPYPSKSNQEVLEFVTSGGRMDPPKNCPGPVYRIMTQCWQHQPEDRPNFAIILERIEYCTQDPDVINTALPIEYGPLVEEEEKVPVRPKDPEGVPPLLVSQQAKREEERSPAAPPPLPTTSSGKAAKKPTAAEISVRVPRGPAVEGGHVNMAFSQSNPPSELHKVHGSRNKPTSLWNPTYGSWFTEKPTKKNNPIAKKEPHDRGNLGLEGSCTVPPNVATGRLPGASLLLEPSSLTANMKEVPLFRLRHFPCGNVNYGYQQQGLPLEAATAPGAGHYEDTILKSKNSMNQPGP
# Test: NPM-ALK BaF3 assay (growth inhibition of BaF3-NPM-ALK cells)
# Experimental Setup: human NPM-ALK overexpressing murine BaF3 cells
pIC50: −log10 of the molar value.
Reported pIC50 values for a set of compounds
Observation Type: pIC50

compound="Cc1cc(Nc2nc(Nc3ccccc3S(=O)(=O)C(C)C)n3nccc3n2)c(OC(C)C)cc1C1CCN(C)CC1 [Ex 1]" assay_result=6.94
compound="COc1cc(C2CCN(C(=O)CN3C[C@@H](O)[C@H](O)C3)CC2)c(C)cc1Nc1nc(Nc2ccccc2S(=O)(=O)C(C)C)n2nccc2n1 [Ex 21]" assay_result=6.54
compound="COc1cc(C2CCN(CCS(C)(=O)=O)CC2)c(C)cc1Nc1nc(Nc2ccccc2S(=O)(=O)C(C)C)n2nccc2n1 [Ex 7]" assay_result=7.30
compound="COc1cc(C2CCNCC2)c(C)cc1Nc1nc(Nc2ccccc2S(=O)(=O)C(C)C)n2nccc2n1 [Ex 4]" assay_result=7.42
compound="COc1cc(C2CCN(C(=O)CCCN(C)C)CC2)c(C)cc1Nc1nc(Nc2ccccc2S(=O)(=O)C(C)C)n2nccc2n1 [Ex 72]" assay_result=7.24
compound="CC(C)S(=O)(=O)c1ccccc1Nc1nc(Nc2ccc(C3CCN(C(=O)CN4CCC4)CC3)cc2)nc2ccnn12 [Ex 93]" assay_result=6.88
compound="COc1cc(C2CCN(C(=O)CNCCO)CC2)c(C)cc1Nc1nc(Nc2ccccc2S(=O)(=O)C(C)C)n2nccc2n1 [Ex 58]" assay_result=7.07

Values compiled from patent US8518931B2.
